Ref: PubChem BioAssay AID1159580

normalized growth reference
METHOD NOTES: chemical genetic growth profiling, strain panel (AID 1159580);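 note: tested at 20 µM; growth read once vehicle control cultures reached saturation at 30 °C; 1 = growth at the plate median or of vehicle wells; lower values mean less growth of the strain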
CONDITION SET: S. cerevisiae deletion strains, growth OD, locus YNL197C, strain WHI3, stronger effect = lower value
The campaign covered roughly 5,500 compounds. About 2,000 (36%) were called active. About 18% were inconclusive and are not listed. Some of the results follow.
Give only the figure.

Example entries begin here.
COMPOUND	READING
CNc1ncnc2c1ncn2[C@H]1C[C@H](OP(=O)(O)O)[C@@H](COP(=O)(O)O)O1	1
CN/C(=C\[N+](=O)[O-])NCCSCc1ccc(CN(C)C)o1	1.01
Cc1ccc(/C(=C\CN2CCCC2)c2ccccn2)cc1	1.01
O=C(CCNNC(=O)c1ccncc1)NCc1ccccc1	0.993
CC(C)NC[C@H](O)c1ccc(O)c(O)c1	1.01
COc1[nH]c2ccc(F)cc2c1C(=O)OCC1CCN(CCNS(C)(=O)=O)CC1	1.02
OCC1NCC(O)C(O)C1O (configuration not stated)	1.01
CNC[C@H](O)c1ccc(O)c(O)c1	1.01

Query: Returns the measured normalized growth for the input compound. Input: `CCN1CCc2nc(N)oc2CC1`
Reply: 1.02

Query: Also `CC(C)NC[C@@H](O)c1ccc(O)c(O)c1` , if possible.
Reply: 0.985

Query: Also C=C(C)C1CC=C(C(=O)O)CC1 (configuration not stated) , if possible.
Reply: 1

Query: Also NCC(O)c1ccc(O)cc1 (configuration not stated) , if possible.
Reply: 1.04
